Test system: CSK
Set-up: species or system human, MV4-11 + K-562 + COLO205 + SK-N-BE2 + OVCAR-8
Conditions: read-out: apparent Kd; compound concentrations:100 nM and 1000 nM (sheet 'Samples'); n = 1
Label Fulfilled when potency estimated from few doses is at or above 0.4 µM; otherwise label Not fulfilled.

{"columns": ["COMPOUND", "CLASS"],
 "data": [
  ["O=C1NC(=O)C(N2CCc3ccccc32)=C1c1ccccc1Cl", "Not fulfilled"],
  ["Cl.Cl.NCC(C(=O)Nc1cc(Br)c(-c2ccnc3[nH]ccc23)s1)c1ccccc1.NCC(C(=O)Nc1cc(Br)c(-c2ccnc3[nH]ccc23)s1)c1ccccc1 (stereo not drawn) [GSK1269851A]", "Fulfilled"],
  ["CN1C[C@@H]2Cn3c(c(C4=C(c5cn(C)c6ccccc56)C(=O)NC4=O)c4ccccc43)C[C@H]2C1.Cl", "Fulfilled"],
  ["CC(C)c1nc(-c2ccc(F)c(NS(=O)(=O)c3c(F)cccc3F)c2)c(-c2ccnc(Nc3ccc(N4CCOCC4)nc3)n2)s1 [GSK1804250A]", "Fulfilled"],
  ["Cc1ccc2c(-c3ccncc3)c(-c3ccc(F)cc3)nn2c1.Cl [GW461484A]", "Fulfilled"],
  ["CC(C)N1CCC(n2cnc(-c3ccc(F)cc3)c2-c2ccnc(N)n2)CC1", "Fulfilled"]
]}

Cited source: paper PMC11062922
